- System: E. coli JJ2489
- Type: cell-based
- PARTICULARS: JJ2489, 1 h
Where a SMILES comes first, the peptide text is derived from it.
VALUE KIND: MIC (µmol/L)
Reply with just the number (in µmol/L).

get_value(item= CC[C@H](C)[C@H](NC(=O)[C@H](CCCNC(=N)N)NC(=O)[C@@H](N)CCCNC(=N)N)C(=O)N[C@@H](CCCCN)C(=O)N[C@@H](CCCCN)C(=O)N[C@@H](CCCNC(=N)N)C(=O)N1CCC[C@H]1C(=O)N1CCC[C@H]1C(=O)N[C@@H](CCCNC(=N)N)C(=O)N[C@@H](CC(C)C)C(=O)N1CCC[C@H]1C(=O)N[C@@H](CCCNC(=N)N)C(=O)N1CCC[C@H]1C(=O)N[C@@H](CCCNC(=N)N)C(=O)N1CCC[C@H]1C(=O)N[C@@H](CCCNC(=N)N)C(=O)O [Bac_R4K/P5K] (H-RRIKKRPPRLPRPRPR-OH) , readout=MIC) returns 0.120

====

- Tested on: Salmonella enterica serovar Enteritidis MH91989
- Format: cell-based
- PARTICULARS: serovar Enteritidis MH91989, 1 h
Where a SMILES comes first, the peptide text is derived from it.
VALUE KIND: MIC (µmol/L)
Response body: numeric value in µmol/L, unit text excluded.

Record CC(C)C[C@H](NC(=O)[C@H](CCCNC(=N)N)NC(=O)[C@@H]1CCCN1C(=O)[C@H](Cc1c[nH]cn1)NC(=O)[C@@H]1CCCN1C(=O)[C@@H]1CCCN1C(=O)[C@H](CCCNC(=N)N)NC(=O)[C@@H]1CCCN1C(=O)[C@H](CCC(N)=O)NC(=O)[C@@H]1CCCN1C(=O)[C@H](CCCNC(=N)N)NC(=O)[C@H](Cc1ccc(O)cc1)NC(=O)[C@@H](NC(=O)[C@@H]1CCCN1C(=O)[C@H](CCCCN)NC(=O)[C@H](CC(N)=O)NC(=O)[C@H](CC(N)=O)NC(=O)CN)C(C)C)C(=O)O [Api_R4K/I8R] (H-GNNKPVYRPQPRPPHPRL-OH) , field MIC: 0.031

====

- System: E. coli JJ2489
- Assay type: cell-based
- PARTICULARS: JJ2489, 1 h
Where a SMILES comes first, the peptide text is derived from it.
MIC listing for selected compounds.
Express the result in µM but write the number alone.

// returns MIC for CC[C@H](C)[C@H](NC(=O)[C@H](CCCNC(=N)N)NC(=O)[C@@H](N)CCCNC(=N)N)C(=O)N[C@@H](CCCNC(=N)N)C(=O)N1CCC[C@H]1C(=O)N[C@@H](CCCNC(=N)N)C(=O)N1CCC[C@H]1C(=O)N1CCC[C@H]1C(=O)N[C@@H](CCCNC(=N)N)C(=O)N[C@@H](CC(C)C)C(=O)N1CCC[C@H]1C(=O)N[C@@H](CCCNC(=N)N)C(=O)N1CCC[C@H]1C(=O)N[C@@H](CCCNC(=N)N)C(=O)N1CCC[C@H]1C(=O)N[C@@H](CCCNC(=N)N)C(=O)O [Bac_WT, reference compound] (H-RRIRPRPPRLPRPRPR-OH) with E. coli JJ2489; value = 0.120

Case CC(C)C[C@H](NC(=O)[C@H](CCCNC(=N)N)NC(=O)[C@@H]1CCCN1C(=O)[C@H](CCCNC(=N)N)NC(=O)[C@@H]1CCCN1C(=O)[C@@H]1CCCN1C(=O)[C@H](CCCNC(=N)N)NC(=O)[C@@H]1CCCN1C(=O)[C@H](CCC(N)=O)NC(=O)[C@@H]1CCCN1C(=O)[C@H](CCCNC(=N)N)NC(=O)[C@H](Cc1ccc(O)cc1)NC(=O)[C@@H](NC(=O)[C@@H]1CCCN1C(=O)[C@H](CCCCN)NC(=O)[C@H](CC(N)=O)NC(=O)[C@H](CC(N)=O)NC(=O)CN)C(C)C)C(=O)O [Api_R4K/I8R/H15R] (H-GNNKPVYRPQPRPPRPRL-OH) , E. coli JJ2489, MIC recorded as 0.133

I looked up CC[C@H](C)[C@H](NC(=O)[C@H](CCCNC(=N)N)NC(=O)[C@@H](N)CCCNC(=N)N)C(=O)N[C@@H](CCCCN)C(=O)N1CCC[C@H]1C(=O)N[C@@H](CCCNC(=N)N)C(=O)N1CCC[C@H]1C(=O)N1CCC[C@H]1C(=O)N[C@@H](CCCNC(=N)N)C(=O)N[C@@H](CC(C)C)C(=O)N1CCC[C@H]1C(=O)N[C@@H](CCCNC(=N)N)C(=O)N1CCC[C@H]1C(=O)N[C@@H](CCCNC(=N)N)C(=O)N1CCC[C@H]1C(=O)N[C@@H](CCCCN)C(=O)O [Bac_R4K/R16K] (H-RRIKPRPPRLPRPRPK-OH) and its MIC for E. coli JJ2489 was 0.120
